# Measured On: Prostaglandin G/H synthase 1 (Ovis aries)
# Experiment Description: Inhibition of ovine COX1 assessed as reduction in PGF2alpha formation at 10 uM incubated for 18 hrs by enzyme immunoassay
Measured Property: inhibition

INSERT INTO results (mol_smiles, measured_property, result) VALUES
  ('Cc1nn(-c2ccccc2)c2c1c(=O)oc1ccc(Br)cc12', 'inhibition', '54.2%'),
  ('Cc1nn(-c2ccc(Br)cc2)c2c1c(=O)oc1ccccc12', 'inhibition', '47.5%'),
  ('COc1ccc2c(c1)oc(=O)c1c(C)nn(-c3ccccc3)c12', 'inhibition', '43.2%'),
  ('Cc1nn(-c2ccc(C(F)(F)F)cc2)c2c1c(=O)oc1ccccc12', 'inhibition', '34.3%'),
  ('Cc1nn(-c2ccc(Cl)cc2)c2c1c(=O)oc1ccccc12', 'inhibition', '43.7%'),
  ('COc1ccc2c(c1)oc(=O)c1c(C)nn(-c3cc(C)ccc3C)c12', 'inhibition', '39.5%');
